Test system: HEL
Assay: Compound was tested for anti-viral activity against HSV-1(KOS) in HEL cells
Type: functional, cell-based
Settings: Homo sapiens
endpointName: pEC50
Answers are plain numbers, as −log10 of the molar value.

Cc1c(O)c(=O)ccn1[C@H]1CS[C@@H](CO)O1 (racemic): 4.49
Cc1c(O)c(=O)ccn1[C@@H]1CC[C@@H](CO)O1: 3.75
Nc1ccn(C[C@@H](CO)OCP(=O)(O)O)c(=O)n1: 6.24
Cc1c(O)c(=O)ccn1[C@H]1CC[C@@H](CO)O1: 4.40
Nc1nc2c(ncn2COCCO)c(=O)[nH]1: 6.49

pEC50 reported for this compound Cc1c(O)c(=O)ccn1[C@@H]1CS[C@@H](CO)O1 (racemic) : 4.40

* * *

Give measured EC50 for each item. Keep answers brief.
Tested on: CCRF-CEM
Experiment: Compound was tested for anti-viral activity against HIV-1 in CEM cells
Assay type: functional, cell-based
Settings: Homo sapiens

Would you please look over these solved cases?
Cc1c(O)c(=O)ccn1[C@H]1CS[C@@H](CO)O1 (racemic): > 80 µM
Cc1c(O)c(=O)ccn1[C@@H]1CS[C@@H](CO)O1 (racemic): > 80 µM
Cc1c(O)c(=O)ccn1[C@@H]1CC[C@@H](CO)O1: > 50 µM
Nc1ccn(C[C@@H](CO)OCP(=O)(O)O)c(=O)n1: > 200 µM

The following compounds each have a reported value; give each one's EC50.
1. Nc1nc2c(ncn2COC(CO)CO)c(=O)[nH]1
2. Nc1nc2c(ncn2COCCO)c(=O)[nH]1
3. Cc1c(O)c(=O)ccn1[C@H]1CC[C@@H](CO)O1

A.
["> 200 µM", "> 200 µM", "> 50 µM"]
